- targetUnderTest: Sox2 HMG DBD WT (human, UniProt P48431 39-118)
- Sequence (P48431 39-118): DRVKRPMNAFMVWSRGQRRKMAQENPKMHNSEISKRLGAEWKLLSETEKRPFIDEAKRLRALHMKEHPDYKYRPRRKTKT
- testProtocol: EMSA
# pKd listing for each entry below
Note on units: pKd is unitless, being -log10 of a concentration expressed in mol/L.

Worked examples, 2 binders total:
{"binder": "DNA 62N (dsDNA) DNA 1: TGGAGAATCCCGGTGCCGAGGCCGCTCAATTGGTCGTAGACAGCTCTAGCACCGCTTAAACGCACGTACGCGCTGTCCCCCGCGTTTTAACCGCCAAGGGGATTACTCCCTAGTCTCCAGGCACTTTTGCATTACAATGTATCGT DNA 2: ACGATACATTGTAATGCAAAAGTGCCTGGAGACTAGGGAGTAATCCCCTTGGCGGTTAAAACGCGGGGGACAGCGCGTACGTGCGTTTAAGCGGTGCTAGAGCTGTCTACGACCAATTGAGCGGCCTCGGCACCGGGATTCTCCA", "pKd": 8.64}
{"binder": "DNA 62F (dsDNA) DNA 1: TGGAGAATCCCGGTGCCGAGGCCGCTCAATTGGTCGTAGACAGCTCTAGCACCGCTTAAACGCACGTACGCGCTGTCCCCCGCGTTTTAACCGCCAAGGGGATTACTCCCTAGTCTCCAGGATTAGCATCCAAACAAAGTATCGT DNA 2: ACGATACTTTGTTTGGATGCTAATCCTGGAGACTAGGGAGTAATCCCCTTGGCGGTTAAAACGCGGGGGACAGCGCGTACGTGCGTTTAAGCGGTGCTAGAGCTGTCTACGACCAATTGAGCGGCCTCGGCACCGGGATTCTCCA", "pKd": 8.68}

Let us move to another entry and its pKd.
Ask: Given the binder DNA 54RF (dsDNA) DNA 1: TGGAGAATCCCGGTGCCGAGGCCGCTCAATTGGTCGTAGACAGCTCTAGCACCGCTTAAACGCACGTACGCGCTGTCCCCCGCGTTTTAACCGCCAAGGGGATTACTCCCTAGTCTCCAGGCCTTTGTTTGGATGCTAATATCGT DNA 2: ACGATATTAGCATCCAAACAAAGGCCTGGAGACTAGGGAGTAATCCCCTTGGCGGTTAAAACGCGGGGGACAGCGCGTACGTGCGTTTAAGCGGTGCTAGAGCTGTCTACGACCAATTGAGCGGCCTCGGCACCGGGATTCTCCA , write its reported pKd.
Result: 8.96
